# systemUnderTest: Tau-tubulin kinase 2 (Homo sapiens)
# conditions: dose 10.0 µM, time 30.0 min
readoutName: inhibition (%)
Could you give me the number in %? Just the number is fine.

The reported Tau-tubulin kinase 2 (Homo sapiens) inhibition of Oc1ccc(CNc2ncnc3[nH]ccc23)cc1 is 10

Observed inhibition, Tau-tubulin kinase 2 (Homo sapiens), FC(F)(F)c1ccc(Oc2ccc(Nc3ncnc4[nH]ccc34)cc2)cc1 : 5

Form: item Oc1cccc(Nc2ncnc3[nH]ncc23)c1 ; test system Tau-tubulin kinase 2 (Homo sapiens); inhibition: 13

# inhibition measured on Tau-tubulin kinase 2 (Homo sapiens) for item c1nc(NC2CCCCC2)c2cc[nH]c2n1 = 15

# lookup: Clc1ccc(Nc2ncnc3[nH]ncc23)cc1 on Tau-tubulin kinase 2 (Homo sapiens), inhibition = 1

Reported inhibition (Tau-tubulin kinase 2 (Homo sapiens)) for entry Clc1ccc(CNc2ncnc3[nH]ccc23)cc1 is 10

inhibition for Tau-tubulin kinase 2 (Homo sapiens) with input Oc1ccc(Nc2ncnc3[nH]ncc23)cc1 equals 1

With Tau-tubulin kinase 2 (Homo sapiens) as the test system, c1cc2c(c(Nc3ncnc4[nH]ccc34)c1)CCCC2 showed inhibition of 10

Value sought: inhibition, system Tau-tubulin kinase 2 (Homo sapiens), item FC(F)(F)c1cccc(Oc2ccc(Nc3ncnc4[nH]ccc34)cc2)c1 . Result: 1

Considering Oc1ccccc1Nc1ncnc2[nH]ccc12 , its inhibition with Tau-tubulin kinase 2 (Homo sapiens) was recorded as 1

Observed inhibition on Tau-tubulin kinase 2 (Homo sapiens), entry c1nc(Nc2ccc(N3CCOCC3)cc2)c2cn[nH]c2n1 , equals 12

Here Clc1cccc(Oc2ccc(Nc3ncnc4[nH]ccc34)cc2)c1 was tested on Tau-tubulin kinase 2 (Homo sapiens), and its inhibition came to 1

For the compound c1ccc(-n2cc(COc3ccc(Nc4ncnc5[nH]ccc45)cc3)nn2)cc1 , the measured inhibition on Tau-tubulin kinase 2 (Homo sapiens) was 1

* * *

# assayNotes: AUClast in BALB/c mouse brain at 5 mg/kg, ip measured for 0.08 to 24 hrs by LC-MS/MS analysis
# Type: ADME, organism-based
# Design: dose 5 mg/kg, time 0.08-24 hrs, route ip
readoutName: AUC(0-t) (ng·h/mL)
Numeric answer only, unit ng·h/mL assumed.

Per the record, Clc1ccc(Oc2ccc(Nc3ncnc4[nH]ccc34)cc2)cc1 has AUC(0-t) of 15700

* * *

# assayNotes: Tmax in BALB/c mouse plasma at 10 mg/kg, po measured for 0.25 to 24 hrs by LC-MS/MS analysis
# Assay type: ADME, organism-based
# conditions: time 0.25-24 hrs
readoutName: Tmax (h)
Expressed in h, but write only the number.

Record summary for Clc1ccc(Oc2ccc(Nc3ncnc4[nH]ccc34)cc2)cc1 : reported Tmax = 2

* * *

# assayNotes: Permeability of the compound at pH 7.4 PBS/EtOH buffer (70:30) by PAMPA-BBB assay
readoutName: permeability

Some solved entries appear below for comparison.
Clc1ccc(Cn2cc(COc3ccc(Nc4ncnc5[nH]ccc45)cc3)nn2)cc1    Impermeable
Cc1cccc(Oc2ccc(Nc3ncnc4[nH]ccc34)cc2)c1    Permeable
Nc1ccc(Sc2ccc(Nc3ncnc4[nH]ccc34)cc2)cc1    Permeable
COc1ccc(Oc2ccc(Nc3ncnc4[nH]ccc34)cc2)cc1    Permeable
Cc1ccc(Oc2ccc(Nc3ncnc4[nH]ccc34)cc2)cc1    Permeable

Memo: COc1ccc(Nc2ncnc3[nH]ccc23)cc1 , reported permeability: Impermeable

// permeability value for c1cc(Nc2ncnc3[nH]ccc23)c2c(c1)OCO2 : Permeable

Reported permeability for CCOc1ccc(Nc2ncnc3[nH]ccc23)cc1 was Impermeable

* * *

# assayNotes: Half life in BALB/c mouse plasma at 10 mg/kg, po measured for 0.25 to 24 hrs by LC-MS/MS analysis
# Type: ADME, organism-based
# conditions: time 0.25-24 hrs
readoutName: half-life (h)
The reply should be a number in h, with the unit left off.

# compound Clc1ccc(Oc2ccc(Nc3ncnc4[nH]ccc34)cc2)cc1 ; its half-life = 3.3

* * *

# systemUnderTest: Tau-tubulin kinase 1 (Homo sapiens, UniProt Q5TCY1)
# Sequence (Q5TCY1 whole entry): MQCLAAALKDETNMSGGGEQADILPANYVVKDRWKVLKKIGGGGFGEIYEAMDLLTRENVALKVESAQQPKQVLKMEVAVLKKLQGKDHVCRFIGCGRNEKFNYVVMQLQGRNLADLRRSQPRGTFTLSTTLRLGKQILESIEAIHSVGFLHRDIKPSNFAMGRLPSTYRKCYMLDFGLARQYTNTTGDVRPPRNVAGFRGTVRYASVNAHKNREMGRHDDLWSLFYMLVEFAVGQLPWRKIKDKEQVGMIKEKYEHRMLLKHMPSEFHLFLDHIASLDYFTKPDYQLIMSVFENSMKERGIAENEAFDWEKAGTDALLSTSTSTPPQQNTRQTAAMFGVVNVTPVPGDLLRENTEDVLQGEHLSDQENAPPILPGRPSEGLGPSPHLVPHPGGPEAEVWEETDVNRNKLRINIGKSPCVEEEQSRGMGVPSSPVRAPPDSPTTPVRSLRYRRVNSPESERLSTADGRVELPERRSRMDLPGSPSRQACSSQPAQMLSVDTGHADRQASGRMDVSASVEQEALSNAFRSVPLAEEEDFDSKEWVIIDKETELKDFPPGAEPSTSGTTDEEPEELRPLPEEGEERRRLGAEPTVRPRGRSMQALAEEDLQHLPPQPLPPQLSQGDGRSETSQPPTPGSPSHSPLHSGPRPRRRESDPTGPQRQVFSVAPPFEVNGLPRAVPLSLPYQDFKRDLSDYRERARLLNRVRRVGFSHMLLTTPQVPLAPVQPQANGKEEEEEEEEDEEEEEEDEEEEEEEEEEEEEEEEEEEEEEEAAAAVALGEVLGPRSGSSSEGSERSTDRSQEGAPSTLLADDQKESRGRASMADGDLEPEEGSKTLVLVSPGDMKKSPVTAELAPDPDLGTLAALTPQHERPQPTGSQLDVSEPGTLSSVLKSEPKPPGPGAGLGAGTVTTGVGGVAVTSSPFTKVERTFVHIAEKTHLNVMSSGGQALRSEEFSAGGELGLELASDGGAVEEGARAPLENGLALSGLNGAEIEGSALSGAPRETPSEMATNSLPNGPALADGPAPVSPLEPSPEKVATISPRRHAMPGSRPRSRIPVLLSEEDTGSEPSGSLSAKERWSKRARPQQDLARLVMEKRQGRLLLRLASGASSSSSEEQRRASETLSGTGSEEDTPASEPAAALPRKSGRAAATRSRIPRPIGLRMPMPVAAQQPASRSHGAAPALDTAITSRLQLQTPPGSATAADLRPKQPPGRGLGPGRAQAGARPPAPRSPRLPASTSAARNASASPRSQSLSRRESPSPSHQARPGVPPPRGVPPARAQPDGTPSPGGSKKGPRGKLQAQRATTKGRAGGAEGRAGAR
# conditions: dose 10.0 µM, time 30.0 min
Kindly return MET if reported inhibition is no lower than 9%; return NOT MET if it is lower.

In: Does the compound Clc1ccc(CNc2ncnc3[nH]ccc23)cc1 have recorded inhibition that is 9% or more?
Out: MET

In: Does the compound Clc1ccc(Nc2ncnc3sccc23)cc1 have recorded inhibition that is 9% or more?
Out: MET

In: Threshold query (inhibition >= 9%) on c1ccc(-n2cc(COc3ccc(Nc4ncnc5[nH]ccc45)cc3)nn2)cc1
Out: MET

In: Item Clc1ccc(Nc2ncnc3[nH]ncc23)cc1 with inhibition of 9% or above?
Out: NOT MET

In: API: above_or_equal(metric=inhibition, cutoff=9%) for item c1ccc(Nc2ncnc3sccc23)cc1
Out: MET

In: Confirm if inhibition reported for the compound c1nc(NC2CCCCC2)c2cc[nH]c2n1 is 9% or above.
Out: NOT MET

In: Hi, just wondering whether c1nc(Nc2ccc(N3CCOCC3)cc2)c2cn[nH]c2n1 shows inhibition of 9% or higher.
Out: MET

In: Could you verify whether the entry Oc1ccc(Nc2ncnc3[nH]ncc23)cc1 shows inhibition of no less than 9%?
Out: NOT MET

In: Is inhibition at least 9%? Consider Oc1ccccc1Nc1ncnc2[nH]ccc12
Out: MET

In: Answer whether inhibition of c1cc2c(c(Nc3ncnc4[nH]ccc34)c1)CCCC2 is greater than or equal to 9%.
Out: MET

In: Is inhibition at least 9%? Consider Oc1ccc(CNc2ncnc3[nH]ccc23)cc1
Out: MET

* * *

Parameter 'readout' = pIC50; parameter 'system' = Tau-tubulin kinase 2 (Homo sapiens, UniProt Q6IQ55).
Sequence (Q6IQ55 whole entry): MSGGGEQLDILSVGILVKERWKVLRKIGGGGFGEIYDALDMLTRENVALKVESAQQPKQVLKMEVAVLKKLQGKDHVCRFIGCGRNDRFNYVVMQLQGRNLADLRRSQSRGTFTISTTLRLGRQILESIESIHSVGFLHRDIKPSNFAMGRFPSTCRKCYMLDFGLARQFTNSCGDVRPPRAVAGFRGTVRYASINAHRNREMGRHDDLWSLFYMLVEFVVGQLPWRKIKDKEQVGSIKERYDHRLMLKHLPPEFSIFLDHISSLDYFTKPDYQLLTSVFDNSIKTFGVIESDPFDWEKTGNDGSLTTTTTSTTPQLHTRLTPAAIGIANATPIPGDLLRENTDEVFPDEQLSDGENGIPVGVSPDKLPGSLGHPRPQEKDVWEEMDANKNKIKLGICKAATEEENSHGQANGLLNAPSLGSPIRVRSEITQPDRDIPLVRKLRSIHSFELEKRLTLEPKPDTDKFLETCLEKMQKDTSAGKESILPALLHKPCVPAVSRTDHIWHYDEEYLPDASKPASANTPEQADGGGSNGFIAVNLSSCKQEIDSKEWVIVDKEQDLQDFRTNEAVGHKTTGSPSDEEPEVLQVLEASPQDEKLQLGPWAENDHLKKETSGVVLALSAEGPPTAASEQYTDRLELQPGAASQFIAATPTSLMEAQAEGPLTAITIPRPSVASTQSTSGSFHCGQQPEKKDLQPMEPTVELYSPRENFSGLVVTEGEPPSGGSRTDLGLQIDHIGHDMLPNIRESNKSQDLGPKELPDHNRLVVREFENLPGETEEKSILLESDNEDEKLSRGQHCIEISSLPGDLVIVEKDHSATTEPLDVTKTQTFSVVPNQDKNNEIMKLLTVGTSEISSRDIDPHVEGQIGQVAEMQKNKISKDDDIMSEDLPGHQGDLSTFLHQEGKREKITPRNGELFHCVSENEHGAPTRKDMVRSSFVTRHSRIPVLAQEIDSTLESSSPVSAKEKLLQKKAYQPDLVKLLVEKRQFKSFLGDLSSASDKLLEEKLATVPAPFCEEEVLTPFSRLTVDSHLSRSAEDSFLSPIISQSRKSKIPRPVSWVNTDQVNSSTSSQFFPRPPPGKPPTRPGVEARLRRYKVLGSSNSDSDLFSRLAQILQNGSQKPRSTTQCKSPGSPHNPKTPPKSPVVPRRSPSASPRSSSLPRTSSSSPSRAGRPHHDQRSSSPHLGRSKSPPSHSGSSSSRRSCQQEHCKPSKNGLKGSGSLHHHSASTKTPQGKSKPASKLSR
Scale explanation: pIC50 corresponds to minus log10 of a concentration expressed in moles per litre.

Record Clc1ccc(Nc2ncnc3[nH]ccc23)cc1 . Reported pIC50: 4.69

The molecule listed as Oc1ccc(Nc2ncnc3[nH]ccc23)cc1 shows pIC50 equal to 5.13

Lab book: pIC50 of Clc1cccc(Cn2cc(COc3ccc(Nc4ncnc5[nH]ccc45)cc3)nn2)c1 noted as 5.69

Please fill in: pIC50 reported for Clc1ccc(Oc2ccc(Nc3ncnc4[nH]ccc34)cc2)cc1Cl = 5.24

Value of measured pIC50 for the entry c1ccc(Nc2ncnc3[nH]ccc23)cc1 : 5.77

Query c1cc(Nc2ncnc3[nH]ccc23)c2c(c1)OCO2 yields pIC50 of 5.12

# molecule Clc1ccc(Cn2cc(COc3ccc(Nc4ncnc5[nH]ccc45)cc3)nn2)cc1 ; its pIC50 = 5.54

Form: molecule = Clc1ccccc1Cn1cc(COc2ccc(Nc3ncnc4[nH]ccc34)cc2)nn1 ; pIC50 = 5.56

According to the records, this molecule COC(=O)c1cc(Nc2ncnc3[nH]ccc23)ccc1Br displays pIC50 of 5.38

Looking up FC(F)(F)Oc1ccc(Nc2ncnc3[nH]ccc23)cc1 , I found its pIC50 recorded as 5.06

pIC50 in this record for c1cncc(Oc2ccc(Nc3ncnc4[nH]ccc34)cc2)c1 : 5.22

What the record says about Cc1ccc(Cn2cc(COc3ccc(Nc4ncnc5[nH]ccc45)cc3)nn2)cc1 : pIC50 is 5.76

For reference, reported pIC50 for Clc1ccc(CCNc2ncnc3[nH]ccc23)cc1 stands at 4.07

Looking up CCOc1ccc(Nc2ncnc3[nH]ccc23)cc1 , I see its pIC50 listed as 4.86

What the record says about c1cc(Nc2ncnc3[nH]ccc23)cc(N2CCOCC2)c1 : pIC50 is 5.24

The reported pIC50 of the molecule Clc1cccc(Nc2ncnc3[nH]ccc23)c1 was 4.86

Sample CC(=O)c1ccc(Nc2ncnc3[nH]ccc23)cc1 ; pIC50 observed: 5.03

The recorded pIC50 for entry CC(C)Oc1ccc(Nc2ncnc3[nH]ccc23)cc1 equals 5.08

The recorded pIC50 for COc1ccc(Nc2ncnc3[nH]ccc23)cc1 is 5.88

For Oc1ccc(CCNc2ncnc3[nH]ccc23)cc1 the molecule record lists pIC50 as 4.42

Reported pIC50 for c1nc(Nc2ccc(N3CCOCC3)cc2)c2cc[nH]c2n1 was 4.80

So for Oc1cccc(Nc2ncnc3[nH]ccc23)c1 , the logged pIC50 turned out to be 5.17

GET /value?item= Clc1ccccc1Nc1ncnc2[nH]ccc12 &field=pIC50 returns 4.38

Query c1ccc(CCn2cc(COc3ccc(Nc4ncnc5[nH]ccc45)cc3)nn2)cc1 yields pIC50 of 5.58

* * *

Assay system Tau-tubulin kinase 1 (Homo sapiens, UniProt Q5TCY1); read-out recorded as IC50.
Answer in nM, number only, no unit symbol.

# IC50 of Clc1ccc(Nc2ncnc3[nH]ccc23)cc1 = 3200

IC50 for Clc1cccc(Nc2ncnc3[nH]ccc23)c1 is 15200

For reference, reported IC50 for c1cncc(Oc2ccc(Nc3ncnc4[nH]ccc34)cc2)c1 stands at 750

Field IC50 (entry Nc1nc(Nc2ccc(Oc3ccc(C(F)(F)F)cc3)cc2)c2cc[nH]c2n1 ) reads 380

Item: c1cc(Nc2ncnc3[nH]ccc23)cc(N2CCOCC2)c1 | IC50: 4700

Recorded IC50 (compound Clc1ccc(CCNc2ncnc3[nH]ccc23)cc1 ): 18200

IC50 measured on c1ccc(Nc2ncnc3[nH]ccc23)cc1 = 790

IC50 measured on Clc1cccc(Cn2cc(COc3ccc(Nc4ncnc5[nH]ccc45)cc3)nn2)c1 = 480

Note to self: IC50 recorded for CC(C)Oc1ccc(Nc2ncnc3[nH]ccc23)cc1 was 1500

For record Clc1ccc(Oc2ccc(Nc3ncnc4[nH]ccc34)cc2)cc1Cl the listed IC50 is 2300

Given item COC(=O)c1cc(Nc2ncnc3[nH]ccc23)ccc1Br , the value recorded as its IC50 is 2200

Lab note: measured IC50 of c1ccc(CCn2cc(COc3ccc(Nc4ncnc5[nH]ccc45)cc3)nn2)cc1 was 390
